# credit: a melting point compilation (Tetko et al.; mined from patent text by program, amines drawn as free bases though some values may be those of a salt)

# melting point per record follows

Record excerpt, results attached:
# Compound, melting point
measured = [
    ("COC(=O)CCCc1cc2nc(Cl)ccc2n1S(=O)(=O)c1ccc2c(c1)OCO2", "120 °C"),
    ("Cc1nc(N2CCN(Cc3ccccc3)C2=NC#N)sc1C(=O)NCc1ccccc1", "226 to 228 °C"),
    ("CC(C)[C@H](NC(=O)CS)C(=O)N1CCC[C@H]1C(=O)O", "162 to 165 °C"),
    ("Cc1sc2nc(-c3ccccc3)c(-c3ccc(S(C)(=O)=O)cc3)n2c1C", "193 to 194 °C"),
    ("CCCCNC(=O)Cc1ccc2c(c1)c(Cc1ccc(C(=O)NS(=O)(=O)c3ccccc3C)cc1OC)cn2CCC", "100 to 102 °C"),
]

### Prompt Entry Cc1cc(NCCNCC(O)COc2ccccc2)n2ncnc2n1 (stereo not drawn) has what melting point?
### Response 126 to 127 °C

### Prompt What do you get for O=[N+]([O-])c1cc(CS)cc(O)c1O ?
### Response 179 to 185 °C

### Prompt Queued: c1ccc(NC2=NC(Nc3ccccc3)(c3ccccc3)C(c3ccccc3)=N2)cc1 (stereo not drawn)
### Response 153 to 156 °C

### Prompt For CC(=O)N1CCCC2=C1CC(c1ccccc1)c1cc(Cl)ccc12 (stereo not drawn) then?
### Response 167 to 168 °C

### Prompt Subsequent entry: COCC(C)Nc1cc(-c2ccnc(Nc3cccc(Cl)c3)n2)cc(Cl)n1 (stereo not drawn)
### Response 128 to 129 °C

### Prompt Then what about the compound NC(Cc1ccc(OCc2ccccc2)cn1)C(=O)Nc1ccc(CCCC(=O)NO)cc1 (stereo not drawn) ?
### Response > 300 °C

### Prompt And COc1ccc(-c2cc(-c3ccccc3)[nH]c2C(=O)Nc2cccc(CC(=O)NO)c2)cc1 ?
### Response 205 to 206 °C

### Prompt // repeat for CCCCCCCCCCCCCCCCCCOc1ccc(N)cc1 and report
### Response 95 to 97 °C

### Prompt Follow-up item: O=C(O)Cc1ccc2c(c1)Cc1ccccc1-2
### Response 184 to 186 °C

### Prompt Next: CCOC(=O)c1cncn1C1CC(C)(C)Oc2ccccc21 (stereo not drawn)
### Response 80.9 °C

### Prompt Entry to check: O=C(NN=C(c1ccccc1)c1ccncc1)c1cccnc1
### Response 74 °C

====

Measured melting point by item

Worked cases, answers included:
# Molecule, melting point
records = [
    ("Cc1ccc2ncc(C(=O)NC3CCCC3)c(=O)n2c1", "162 to 164 °C"),
    ("O=C1COc2cc(S(=O)(=O)c3ccccc3)ccc2N1CC1=NCCN1", "114 to 116 °C"),
    ("ON=C1Cc2ccccc2C1", "145 to 148 °C"),
]

### Prompt What does the record list as melting point for CC1(c2ccccc2)OC(C=Cc2ccncc2)=CC1=O (stereo not drawn) ?
### Response 165 to 166 °C

### Prompt And for CC(C)Oc1cc(-n2c(=O)cc(C(F)(F)C(F)(F)F)[nH]c2=O)c(F)cc1Cl ?
### Response 141 to 143 °C

### Prompt COC(=O)/C(=C/C=C/c1cc2cc(Cl)c(Cl)cc2[nH]1)OC , same question.
### Response 203 to 204 °C

### Prompt Try the molecule Cc1ccnc(Nc2nc(-c3cc(-c4ccc(Cl)cc4)no3)cs2)c1
### Response 209 to 211 °C

### Prompt What about this molecule? CCCCCCN(C)c1ccc(C=C2SC(=S)N(CC(=O)NS(=O)(=O)C(F)(F)F)C2=O)cc1
### Response 94 to 97 °C

### Prompt And C[Si](C)(C)c1cc(Cl)sc1C(=O)NCCCl ?
### Response 68 to 72 °C

====

Value Kind: melting point

Take a look at these entries with their results.
# Molecule, melting point
measured = [
    ("O=C(C=Cc1ccc(C(F)(F)F)cc1)N1CCc2c([nH]c3ccccc23)C1c1ccccc1 (centres undefined)", "211 °C"),
    ("CC(=O)N1CCC(CC(=O)c2ccc(N(C)C)cc2)CC1", "136 °C"),
    ("Cn1c2c(c(=O)n(-c3cc(C(=O)O)c(Cl)cc3F)c1=O)CCC2", "270 to 273 °C"),
    ("COc1ccc(C=O)c(Br)c1O", "80 to 81.5 °C"),
    ("Cc1c2c(cc3c(=O)c4ccccc4oc13)CC(C(=O)O)O2 (centres undefined)", "297 to 299 °C"),
    ("O=C(Cc1ccc(Cl)c(Cl)c1)c1ccc(Cl)cc1", "99 to 103 °C"),
    ("COC(=O)[C@@H]1C[C@H](OC(=O)c2ccccc2)CN1C(=O)OC(C)(C)C", "89 to 90 °C"),
    ("COc1cc(C(=O)c2nccn2C)cc([N+](=O)[O-])c1OC", "144 to 145 °C"),
]

### Prompt melting point lookup needed for CCCn1c(=O)n2c(=O)[nH]nc2c2c1ncn2C , thanks.
### Response 299 to 301 °C

### Prompt How about COc1cc2c(c(OC)c1OC)-c1ccc([N+](=O)[O-])cc1COC2 ?
### Response 161 °C

### Prompt What about O=c1[nH]c2cccnc2n1-c1ccccc1 ?
### Response 233 to 235 °C

====

Value Kind: melting point

Some solved entries appear below for comparison.
# Compound, Result Value
data = [
    ("CCOC(=O)c1nc(-c2cccc(Cl)c2)c(-c2ccc(=O)n(C(C)C)n2)s1", "134 to 136 °C"),
    ("CN1C(=O)CC[C@]2(C)c3ccc(-c4cccc(Cl)c4Cl)cc3CC[C@@H]12", "131 to 134 °C"),
    ("N#Cc1cccc(OCc2ccccc2)c1", "38 to 40 °C"),
    ("O=C(O)c1ccc2c(c1)CCc1ccc(Br)cc1C2=O", "218 to 219 °C"),
    ("CC[C@@H](c1ccccc1)N(Cc1ccc(C(=O)OC)cc1)S(=O)(=O)c1ccc(F)cc1", "107 to 109 °C"),
    ("N#Cc1c[nH]cc1-c1ccc(Cl)cc1C(=O)c1ccccc1Cl", "182 to 184 °C"),
    ("NC(=O)c1cc(-c2cccc3cc(Cc4cccc(C(F)(F)F)c4)sc23)ccc1F", "169 to 170 °C"),
    ("COc1ccc(C2CC(=O)N(c3ccncc3)C2=O)cc1 (configuration not stated)", "179 to 180 °C"),
    ("COc1nc(CC(=O)OC(C)(C)C)c([N+](=O)[O-])cc1C", "71 to 72.5 °C"),
    ("COc1ccc(Cl)cc1C(C)(C)c1cc(Cl)ccc1O", "137 °C"),
]

### Prompt Dear colleague, I am looking for the recorded melting point of the following compound: C[Si](C)(Cc1ccccc1)CN1C(=O)c2ccccc2C1=O
### Response 91 to 92 °C

### Prompt Follow-up entry: COc1nc(C(F)(F)F)cc(=O)n1-c1cc(C(=O)OC(C)C)c(Cl)cc1F
### Response 121 to 123 °C

### Prompt Would you kindly repeat that for O=C(CN1C(=O)c2ccccc2S1(=O)=O)Nc1ccccc1 ?
### Response 180 to 182 °C

### Prompt What do we get for CCOC(=O)CNC(=O)c1nc2ccc(NCCCN3CCC(OC(c4ccccc4)c4ccccc4)CC3)nn2n1 ?
### Response 175 to 177 °C

### Prompt Next compound: CCOC(=O)C=CNc1oc2ccc(CC)cc2c(=O)c1C=O
### Response 201 to 203 °C

### Prompt And O=S(=O)(Cl)c1ccc(Cl)c(CBr)c1Cl ?
### Response 90 to 92 °C

### Prompt Cool, now CCCS(=O)(=O)Oc1c(C(=O)c2nn(C)c(=O)n(-c3ccccc3)c2=O)cnn1C(C)C
### Response 51 to 53 °C

====

Below, each entry is listed alongside its reported melting point.
Residues, ends and D or L forms follow the SMILES beside them. *: point of attachment. Cbz = O=C(OCc1ccccc1)*

The examples below pair each entry with its known result.
# Compound, Result Value
records = [
    ("CCCc1c(C)c(NC(=O)CC(C)(C)C)c(C)c2c1OCC2c1ccc(C(C)C)cc1 (centres undefined)", "145 to 148 °C"),
    ("COc1cc2c(c(C(C)C)c1OC)CC(C)C=C2 (centres undefined)", "56 to 57 °C"),
    ("COC(=O)C(C)NC(=O)C1CCCN1C(=O)CNC(=O)OCc1ccccc1 (stereo not drawn) (Cbz-Gly-Pro-Ala-OMe; configuration not given here)", "103 to 106 °C"),
    ("N#Cc1ccc2oc(Cc3cc4cc(C#N)ccc4o3)cc2c1", "173 to 174 °C"),
    ("CC(C)(C)NCC(O)COc1cc(N)ccc1-c1ccc(=O)[nH]n1 (centres undefined)", "198 to 202 °C"),
]

### Prompt Value lookup for melting point; key = O=C1c2ccccc2C(=O)N1Cc1cc2cc(Cl)cc(-c3ccccc3)c2o1
### Response 163 to 166 °C

### Prompt Same read-out for N#CCSc1c[nH]c2ccccc12 ?
### Response 52 to 54.5 °C

### Prompt Follow-up item: CCOC(=O)[C@H](Cc1ccc(O)cc1)NC(=O)c1c(Cl)cccc1Cl
### Response 141 to 142 °C

### Prompt What about Nc1cc(-c2ccccc2)nc2ccccc12 ?
### Response 162 to 164 °C

### Prompt Queued: CC1(C)CC(OC(=O)c2ccccc2)CC(C)(C)N1OC(=NC1CCCCC1)NC1CCCCC1
### Response 50 to 57 °C

### Prompt Continue with Cc1nc2nc(NCCN3CCC(Nc4nc5ccccc5n4Cc4ccc(F)cc4)CC3)ccc2[nH]1
### Response 202 °C

### Prompt Would you mind doing N#CC1CCSc2[nH]c3ccccc3c21 (centres undefined) as well?
### Response 125 to 126 °C

### Prompt Now give it for CCOP(=O)(OCC)C1C(=O)NC(=O)N1C (centres undefined) too.
### Response 95 to 96 °C

### Prompt What about CNC(=O)CCCC1CCN(Cc2cnc3c(C)c(NC(=O)c4ccc(-c5ccc(F)cc5)cc4)ccc3c2)CC1 ?
### Response 210 to 212 °C
